Numbers sourced from patent US7326732B2.

# testedOn: human EP2 prostanoid receptors (Homo sapiens, UniProt P43116)
# Construct: expressed in transfected cells; host or cells: HEK-293
# Sequence (P43116 whole entry): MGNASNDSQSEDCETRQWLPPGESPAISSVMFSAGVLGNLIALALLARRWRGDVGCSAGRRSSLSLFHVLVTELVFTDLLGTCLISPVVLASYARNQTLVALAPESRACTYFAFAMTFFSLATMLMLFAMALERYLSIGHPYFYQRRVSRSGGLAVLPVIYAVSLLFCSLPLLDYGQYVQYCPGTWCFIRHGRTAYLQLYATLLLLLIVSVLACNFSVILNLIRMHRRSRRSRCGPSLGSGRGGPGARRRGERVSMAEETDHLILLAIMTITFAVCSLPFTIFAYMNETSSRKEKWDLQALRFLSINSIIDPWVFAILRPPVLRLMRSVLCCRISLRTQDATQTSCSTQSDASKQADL
# protocolNotes: Agonist activity at recombinant human EP2 prostanoid receptors (cAMP in HEK-293 clones)
# Assay type: cell-based
# measurementSetup: functional classification at EP2
readoutName: activity (EP2 part)

Consider the reported activity (EP2 part) for these compounds:
[
  {
    "smilesRepr": "O=C(O)/C=C/c1cccc(NC(=O)c2ccc(-c3ccc(Cl)cc3)o2)c1",
    "result": "EP2 Agonist"
  },
  {
    "smilesRepr": "O=C(O)/C=C/c1cccc(NC(=O)c2cccc(-c3cccc(Cl)c3)n2)c1",
    "result": "EP2 Agonist"
  },
  {
    "smilesRepr": "O=C(O)Cc1cccc(NC(=O)c2ccc(-c3ccc4c(c3)OCO4)o2)c1",
    "result": "EP2 agonist"
  },
  {
    "smilesRepr": "Cc1cccc(-c2ccc(C(=O)Nc3cccc(CC(=O)O)c3)o2)c1",
    "result": "EP2 agonist"
  },
  {
    "smilesRepr": "O=C(Nc1cccc(-c2nnn[nH]2)c1)c1ccc(-c2ccccc2)o1",
    "result": "EP2 Agonist"
  }
]

Could you now look at the following compound, please?
Measured on human EP2 prostanoid receptors (Homo sapiens, UniProt P43116), `O=C(O)/C=C/c1cccc(OCc2csc(-c3ccccc3)n2)c1` has a documented activity (EP2 part) of EP2 Agonist
